Sourced from PubChem BioAssay (NCATS)

- assay explanation: NFAT Signaling Pathway (AID 444);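 further: carbachol stimulus at about its EC50 of 1 µM final; on the % scale 0 is the no-effect control and ±100 the full control effect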
- test parameters: Jurkat NFAT-bla M1, carbachol, beta-lactamase ratio, 5 h; at 38 µM (top of the series)
Inconclusive results are not listed.
Could you please report measured activity change, negative = inhibition for the items listed next?
Record the value in %, omitting the unit from your answer.

Retrieve activity change, negative = inhibition measured for "COc1ccc2[nH]cc(CCN(C)C)c2c1" and print it. -5.37

For the compound "CC(C)(C)c1o[nH]c(=O)c1C[C@H](N)C(=O)O" , give its reported activity change, negative = inhibition. -2.55

Look up and state reported activity change, negative = inhibition for "C[C@H](N)Cc1c[nH]c2ccc(O)cc12" 3.63

Look up activity change, negative = inhibition of "Cc1o[nH]c(=O)c1C[C@H](N)C(=O)O" and report it. -2.02

Give recorded activity change, negative = inhibition. "COc1ccc(CCN)cc1O" -3.06

Item "C/C(O)=C(/C#N)C(=O)Nc1cc(Br)ccc1Br" : provide activity change, negative = inhibition 6.53

Return activity change, negative = inhibition (reported value) for this compound: "N[C@H](CP(=O)(O)O)C(=O)O" 5.18

Please supply the value of reported activity change, negative = inhibition for the item "Oc1ccc2c3c1O[C@H]1c4oc5ccccc5c4C[C@]4(O)[C@H](C2)N(CC2CC2)CC[C@@]314" -24.9
